# assay overview: fluorescence polarization artefacts, biochemical, artefact control for PKA-R2B activator project (AID 504796);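 note: Cy5 labelled IP20 peptide probe with compound but no PKA protein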
# assay conditions: FP artifact counterscreen, at 11.4 µM, active compounds read high
The other results are listed elsewhere or left out.
Reported activation is given for each of the following molecules.
Provide only the numeric value, understood in %.

O=C(CN(C(=O)CCC(=O)Nc1nccs1)c1ccc(F)cc1)NCc1ccc2c(c1)OCO2
-1.45
N#Cc1ccccc1CN1C(=O)S/C(=C/c2cccn2-c2cccc(C(=O)O)c2)C1=O
19.3
COc1ccc(C/C(C)=N/NC(=O)c2ccncc2)cc1
1.96
O=S(=O)(NCCNS(=O)(=O)c1ccccc1)c1ccccc1
4.68
CC(C)(C)c1nnc(N/N=C/c2ccc(O)cc2)n(N)c1=O
1.05
CCCC(=O)Nc1ncnc2c1ncn2[C@@H]1O[C@@H]2OP(=O)(O)OC[C@H]2[C@H]1OC(=O)CCC
0.15

Q: Dear colleague, I am looking for the recorded activation of the following molecule: CC(C)(C)c1ccc(C(=O)N2CCC(C(=O)N3CCCCC3)CC2)cc1
Ans: 4.67

Q: Query (molecule): COc1ccc(CC(NC(C)=O)C(=O)NC2CCN(C(=O)c3ccc(Cl)cc3)CC2)cc1 (stereo unspecified) ; field requested: activation
Ans: 3.95

Q: Would you kindly share the measured activation for O=C(CNC(=O)c1ccccc1)NCC(=O)OCC(=O)c1ccccc1 ?
Ans: 9.84

Q: Could you tell me which activation is on file for COc1cccc(Nc2nnc(SCC(=O)N3CC(C)OC(C)C3)s2)c1 (stereo unspecified) ?
Ans: 1.43

Q: Could you share which activation value was measured for O=C(CCCN1C(=O)c2cccc3cccc(c23)C1=O)N1CCN(Cc2ccc3c(c2)OCO3)CC1 ?
Ans: 1.66
